assay: Oral pharmacokinetics in fasted male Wistar rats; assay type: in vivo; details: rat, blood, po, 10 mg/kg, PEG/PVP emulsion, 10 mg/kg single oral gavage, fasted male Wistar rats; read-out: AUC(0-8), PEG/PVP-dosed rats
MEASURED PROPERTY: AUC(0-t) at 8 h
The answer consists of two parts: a number and, after it, its unit.

Enquiry: For the compound "CCCCN(CC)c1nc(C)nc2c1c(C)cn2-c1c(C)cc(C)cc1C" , what AUC(0-t) at 8 h is on record?
Return: 283 ng·h/mL

====

test: Oral pharmacokinetics in fasted male Wistar rats; type: in vivo; settings: rat, blood, po, 10 mg/kg, PEG/PVP emulsion, 10 mg/kg single oral gavage, fasted male Wistar rats; read-out: Mean Cmax, PEG/PVP emulsion group
MEASURED PROPERTY: Cmax (ng/mL)
Report the value in ng/mL with no unit label.

Enquiry: Endpoint output: Cmax of "CCCCN(CC)c1nc(C)nc2c1c(C)cn2-c1c(C)cc(C)cc1C" . Value?
Return: 283

====

experiment: Oral pharmacokinetics in fasted male Wistar rats; format: in vivo; conditions: rat, blood, po, 10 mg/kg, aqueous suspension in 0.1% Tween 80, 10 mg/kg single oral gavage, fasted male Wistar rats; read-out: Mean Cmax, 0.1% Tween group
MEASURED PROPERTY: Cmax (ng/mL)
Enter your answer as a number in ng/mL; do not include the unit.

Enquiry: Would you mind telling me what Cmax value was observed for "CCCCN(CC)c1nc(C)nc2c1c(C)cn2-c1c(C)cc(C)cc1C" ?
Return: 267
